Where do the numbers come from? From patent US20180282323A1.

Give pest or weed control at 20 ppm for every item shown.
- System: Myzus persicae
- protocol text: Myzus persicae oral test
- Assay type: in vivo
- stated conditions: Myzus persicae, 120 h; application rate 20 ppm, oral uptake through parafilm, after 5 days; read-out: efficacy
Remember to put the unit after the number in your answer.

Which pest or weed control at 20 ppm value belongs to CCS(=O)(=O)CC(=O)c1c([O-])n(Cc2cnc(Cl)s2)c2cccc[n+]12 ?
100%

Which pest or weed control at 20 ppm value belongs to CCSCC(=O)c1c([O-])n(Cc2cnc(Cl)s2)c2cccc[n+]12 ?
100%

Which pest or weed control at 20 ppm value belongs to CC(=O)c1c([O-])n(Cc2cnc(Cl)s2)c2cccc[n+]12 ?
100%
